List of logP values.
# ASSAY: logP determination by HPLC on a reversed-phase column (C 18), EEC Directive 79/831 Annex V.A8
# Assay type: physicochemical
# MEASUREMENT_SETUP: method marked [c] in Table 1

>  <MOLECULE>
CC(=NOCC(C)(C)CON=C(C)c1ccc(C)c(C)n1)c1cc(C)cc(C)n1 [Compound 697]

>  <logP>
6.70^[c]

$$$$
>  <MOLECULE>
CC(=NOC(C)CC(C)ON=C(C)c1cc(C)cc(C)n1)c1cc(C)cc(C)n1 (stereo not shown) [Compound 557]

>  <logP>
6.63^[c]

$$$$
>  <MOLECULE>
CC(=NOCC(CON=C(C)c1ccc(C)c(C)n1)C(C)C)c1ccc(C)c(C)n1 (stereo not shown) [Compound 681]

>  <logP>
7.18^[c]

$$$$
>  <MOLECULE>
CC(=NOCCC(C)ON=C(C)c1nc(C)ccc1C)c1nc(C)ccc1C (single isomer, unassigned) [compound 759]

>  <logP>
5.02^[c]

$$$$
>  <MOLECULE>
CC(=NOCC(CON=C(C)c1cc(C)cc(C)n1)Cc1ccccc1)c1cc(C)cc(C)n1 (stereo not shown) [Compound 582]

>  <logP>
6.97^[c]

$$$$
>  <MOLECULE>
CC(=NOCC1(CON=C(C)c2cccc(C)n2)CCCCC1)c1cccc(C)n1 [Compound 561]

>  <logP>
7.15^[c]

$$$$
>  <MOLECULE>
C=C(CON=C(C)c1ccc[nH]1)CON=C(C)c1ccc[nH]1 [compound 564]

>  <logP>
3.20^[c]

$$$$
>  <MOLECULE>
CC(=NOCC(CON=C(C)c1nc(C)ccc1C)Cc1ccccc1)c1nc(C)ccc1C (stereo not shown) [compound 590]

>  <logP>
6.01^[c]

$$$$
>  <MOLECULE>
CC(=NOCC1(CON=C(C)c2cc(C)cc(C)n2)CC1)c1cc(C)cc(C)n1 [Compound 556]

>  <logP>
5.97^[c]

$$$$
>  <MOLECULE>
C=C(CON=C(C)c1nc(OC)cc(OC)n1)CON=C(C)c1nc(OC)cc(OC)n1 [compound 565]

>  <logP>
4.10^[c]

$$$$
>  <MOLECULE>
CC(=NOCC1(CON=C(C)c2ccc(C)c(C)n2)CCCC1)c1ccc(C)c(C)n1 [Compound 588]

>  <logP>
7.36^[c]

$$$$
>  <MOLECULE>
CC(=NOCC1(CON=C(C)c2cc(C)cc(C)n2)CCC1)c1cc(C)cc(C)n1 [Compound 562]

>  <logP>
6.93^[c]

$$$$
>  <MOLECULE>
CC(=NOCC(CON=C(C)c1nc(C)ccc1C)C(C)(C)C)c1nc(C)ccc1C (single isomer, unassigned) [compound 756]

>  <logP>
5.20^[c]

$$$$
>  <MOLECULE>
CC(=NOCC(C)CON=C(C)c1ccc2ccc(C)cc2n1)c1ccc2ccc(C)cc2n1 (stereo not shown) [compound 748]

>  <logP>
7.36^[c]

$$$$
>  <MOLECULE>
CC(=NOCC1(CON=C(C)c2nc(C)ccc2C)CCC1)c1nc(C)ccc1C (single isomer, unassigned) [compound 760]

>  <logP>
4.72^[c]

$$$$
>  <MOLECULE>
CC(=NOCC(CON=C(C)c1cc(C)cc(C)n1)C(C)(C)C)c1cc(C)cc(C)n1 (stereo not shown) [Compound 559]

>  <logP>
7.36^[c]

$$$$
